biological target: Tyrosine-protein kinase ABL1 (Homo sapiens) + Ras and Rab interactor 1 (Homo sapiens) (UniProt P00519+Q13671); assay: inhibitors of Rin1-Abl protein binding, primary screen, biochemical, TR-FRET (AID 588664); settings: at 7.35 µM, active compounds read high
Sequence (P00519 whole entry, looked up): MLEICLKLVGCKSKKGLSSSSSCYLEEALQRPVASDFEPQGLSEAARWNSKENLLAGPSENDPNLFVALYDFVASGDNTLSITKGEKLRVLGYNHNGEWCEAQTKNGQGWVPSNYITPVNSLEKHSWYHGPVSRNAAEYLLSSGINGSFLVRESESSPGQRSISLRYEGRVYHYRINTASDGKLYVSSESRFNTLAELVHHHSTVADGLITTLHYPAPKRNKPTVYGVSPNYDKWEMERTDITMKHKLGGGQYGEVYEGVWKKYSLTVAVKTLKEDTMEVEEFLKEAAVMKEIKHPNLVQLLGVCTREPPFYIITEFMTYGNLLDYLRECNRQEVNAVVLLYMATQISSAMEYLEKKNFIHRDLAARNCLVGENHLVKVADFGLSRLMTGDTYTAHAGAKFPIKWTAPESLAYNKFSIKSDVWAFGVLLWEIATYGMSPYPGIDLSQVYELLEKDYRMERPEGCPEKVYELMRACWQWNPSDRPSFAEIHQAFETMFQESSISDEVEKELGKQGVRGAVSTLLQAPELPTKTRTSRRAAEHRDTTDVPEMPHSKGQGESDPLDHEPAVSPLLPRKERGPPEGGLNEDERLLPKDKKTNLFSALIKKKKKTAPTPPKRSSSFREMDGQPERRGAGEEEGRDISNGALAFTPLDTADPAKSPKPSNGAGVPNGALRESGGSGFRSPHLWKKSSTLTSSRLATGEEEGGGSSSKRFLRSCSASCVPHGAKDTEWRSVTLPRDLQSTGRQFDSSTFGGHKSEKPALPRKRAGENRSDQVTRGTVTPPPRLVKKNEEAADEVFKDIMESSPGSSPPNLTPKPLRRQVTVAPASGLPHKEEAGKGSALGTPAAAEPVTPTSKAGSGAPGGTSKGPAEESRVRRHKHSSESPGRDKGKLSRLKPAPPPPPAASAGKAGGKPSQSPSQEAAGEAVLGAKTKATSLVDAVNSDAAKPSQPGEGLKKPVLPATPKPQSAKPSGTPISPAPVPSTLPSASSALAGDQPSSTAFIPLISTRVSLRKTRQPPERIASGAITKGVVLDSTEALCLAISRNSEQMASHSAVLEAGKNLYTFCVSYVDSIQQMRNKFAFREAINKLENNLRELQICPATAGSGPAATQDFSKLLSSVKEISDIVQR
Sequence (Q13671 whole entry, looked up): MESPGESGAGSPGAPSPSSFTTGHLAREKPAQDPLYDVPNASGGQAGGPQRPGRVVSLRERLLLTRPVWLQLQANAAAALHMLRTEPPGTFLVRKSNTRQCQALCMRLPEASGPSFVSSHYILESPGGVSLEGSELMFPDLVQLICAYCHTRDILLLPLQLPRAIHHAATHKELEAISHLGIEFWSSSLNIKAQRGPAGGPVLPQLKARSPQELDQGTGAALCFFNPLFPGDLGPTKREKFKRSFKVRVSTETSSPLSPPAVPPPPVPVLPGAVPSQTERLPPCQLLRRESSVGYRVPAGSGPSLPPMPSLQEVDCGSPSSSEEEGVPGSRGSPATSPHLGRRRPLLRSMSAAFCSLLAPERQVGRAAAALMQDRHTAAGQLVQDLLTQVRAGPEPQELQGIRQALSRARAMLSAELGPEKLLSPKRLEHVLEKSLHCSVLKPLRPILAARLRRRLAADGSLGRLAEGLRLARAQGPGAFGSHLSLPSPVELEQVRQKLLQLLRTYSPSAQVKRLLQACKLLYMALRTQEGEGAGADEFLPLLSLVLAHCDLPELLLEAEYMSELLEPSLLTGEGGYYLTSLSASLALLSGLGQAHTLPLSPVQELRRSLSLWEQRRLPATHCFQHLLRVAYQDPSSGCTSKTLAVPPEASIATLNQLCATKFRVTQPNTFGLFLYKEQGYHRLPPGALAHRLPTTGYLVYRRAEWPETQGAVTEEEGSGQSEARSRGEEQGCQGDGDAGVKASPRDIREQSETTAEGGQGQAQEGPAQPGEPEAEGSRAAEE
About 1,400 (0.39%) of roughly 360,000 compounds were called active. This is one part of a sample in which actives are shown more often than they occur.
Readout type: inhibition (%)
Give a bare numeral; the unit % is implied.

Previously resolved entries follow.
CN(C(=O)c1cccc(NC(=O)Cc2cccc(NC(=O)C3CCCN(C(=O)C4CC4)C3)c2)c1)C1CCC1 (stereo not given) ... 1.65
COc1cccc(COC(=O)C2CCN(S(=O)(=O)c3ccc(Cl)cc3)CC2)c1OC ... 3.29
CCc1ccccc1NC(=S)N(CCN1CCCCCC1)Cc1ccco1 ... -2.14
Cc1ccc(C(=O)CSc2nc3ccccc3c(=O)n2N)o1 ... -0.26
CC(OC(=O)/C=C/c1ccccc1)C(=O)Nc1ccc(C(N)=O)cc1 (stereo not given) ... 1.19
CN(C1CCS(=O)(=O)C1)S(=O)(=O)c1ccc2ccccc2c1 (stereo not given) ... 0.18
COC(=O)c1ccc(COC(=O)C2CCN(S(=O)(=O)c3c(Cl)cccc3Cl)CC2)o1 ... 15.2
CN(C)C=NC(=O)c1cccn1-c1ncc(C(F)(F)F)cc1Cl ... 1.65

COc1ccc(C(CNC(=O)c2cc3c(s2)CCCC3)N2CCOCC2)cc1 (stereo not given) has a reported inhibition of -1.94

COc1ccc([N+](=O)[O-])cc1NC(=O)COC(=O)/C=C/c1ccco1 has a reported inhibition of -3.75

* * *

molecular target: Tyrosine-protein kinase ABL1 (Homo sapiens) + Ras and Rab interactor 1 (Homo sapiens) (UniProt P00519+Q13671); test: inhibitors of Rin1-Abl protein binding, primary screen, biochemical, TR-FRET (AID 588664); conditions: at 7.35 µM
Among all 360,000 compounds or so, about 1,400 (0.39%) were called active. No stated cut-off is given here; in the data, active means inhibition above about 5% (passing the limit was not always enough); inactive means the rest. Only a selection was taken, and actives are over-represented in it overall.
Result category, one only: 1 (yes) for active, 0 (no) for inactive

O=c1c2c(nc3n1CCCCC3)sc1c(O)cccc12 ... 1 (yes)
CCc1cc2c(NC3CCCC3)ncnc2s1 ... 0 (no)

Query: Per the records of this test, what outcome belongs to CNC1(c2nnnn2-c2c(C)cccc2C)CCOC(C)(C)C1 (configuration not stated) ?
Response: 0 (no)

Query: Per the records of this test, what outcome belongs to C=C(Br)Cn1c(CCCC)nc2ccccc21 ?
Response: 0 (no)

Query: Per the records of this test, what outcome belongs to COc1ccc(-c2c(C)nn3c(N4CCC(C(=O)N5CCCCC5)CC4)cc(C)nc23)cc1OC ?
Response: 0 (no)

Query: Per the records of this test, what outcome belongs to CC(C)CNC(=O)CC(c1ccccc1)c1c(O)ccc2ccccc12 (configuration not stated) ?
Response: 0 (no)

Query: Per the records of this test, what outcome belongs to O=c1c2ccccc2ccc2ccc(P(=O)(O)O)cc12 ?
Response: 0 (no)

Query: Per the records of this test, what outcome belongs to CN(C)c1ccc(N/C=C/C(=O)C(F)(F)F)cc1 ?
Response: 1 (yes)

Query: Per the records of this test, what outcome belongs to O=C(CSc1nc(C2CC2)nc2ccccc12)Nc1cccc(O)c1 ?
Response: 0 (no)

Query: Per the records of this test, what outcome belongs to CC(C)CCC(=O)Nc1cc(S(=O)(=O)N2CCOCC2)ccc1N1CCCC1 ?
Response: 0 (no)

Query: Per the records of this test, what outcome belongs to Cc1c(CC(=O)N2CCN(C(=O)C3COc4ccccc4O3)CC2)c(=O)oc2c(O)c(O)ccc12 (configuration not stated) ?
Response: 1 (yes)

Query: Per the records of this test, what outcome belongs to CCCCC(=O)NC(c1ccc(OC)c(OC)c1)c1ccc2cccnc2c1O (configuration not stated) ?
Response: 0 (no)

Query: Per the records of this test, what outcome belongs to O=C(c1cn(-c2ccccc2)nc1-c1cc2ccccc2oc1=O)N1CCOCC1 ?
Response: 1 (yes)

Query: Per the records of this test, what outcome belongs to C[C@@H](NC(=O)[C@@H]1Cc2ccccc2CN1)C(=O)NC1CCCC1 ?
Response: 0 (no)

Query: Per the records of this test, what outcome belongs to O=C(NNc1c2ccccc2nc2ccccc12)c1cc2ccccc2cc1O ?
Response: 1 (yes)

Query: Per the records of this test, what outcome belongs to COCCNC(=O)CSc1nc(N)c(NC(=O)c2ccco2)c(=O)[nH]1 ?
Response: 0 (no)

This collection of values is drawn from PubChem BioAssay AID588664.
